// provenance: ChEMBL document CHEMBL4321820

Biological target: Lysyl oxidase homolog 1 (Homo sapiens, UniProt Q08397)
Sequence (Q08397 whole entry): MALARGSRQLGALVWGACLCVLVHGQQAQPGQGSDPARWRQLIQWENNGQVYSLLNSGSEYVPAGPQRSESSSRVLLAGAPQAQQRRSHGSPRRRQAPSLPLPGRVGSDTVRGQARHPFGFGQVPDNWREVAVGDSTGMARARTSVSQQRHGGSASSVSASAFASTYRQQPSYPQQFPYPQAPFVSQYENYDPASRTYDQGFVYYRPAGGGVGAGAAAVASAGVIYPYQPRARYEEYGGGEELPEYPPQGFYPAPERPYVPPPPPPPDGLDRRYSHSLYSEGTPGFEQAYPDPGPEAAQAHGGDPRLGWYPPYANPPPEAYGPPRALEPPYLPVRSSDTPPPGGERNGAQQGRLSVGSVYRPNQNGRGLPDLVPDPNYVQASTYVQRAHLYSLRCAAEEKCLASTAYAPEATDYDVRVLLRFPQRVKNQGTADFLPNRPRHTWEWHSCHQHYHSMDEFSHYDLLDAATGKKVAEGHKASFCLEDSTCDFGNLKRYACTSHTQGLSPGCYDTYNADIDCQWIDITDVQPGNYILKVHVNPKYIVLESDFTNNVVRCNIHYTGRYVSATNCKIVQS
Experiment: Inhibition of recombinant human LOXL1 using putrescine as substrate preincubated with enzyme for 30 mins followed by substrate addition and measured every 2.5 mins for 30 mins by Amplex-Red oxidation assay
measuredMetric: pIC50
Notebook: values listed as pIC50 are -log10 of the concentration (mol/L).

Req: Sample Cc1c(-c2cccc(S(=O)(=O)N(C)C)c2)c2cc(C(=O)O)ccc2n1C/C(F)=C/CN.Cl — what was its pIC50?
Resp: 5.65

----------
Test: Protein binding in dog plasma
Format: ADME, cell-free, Canis lupus familiaris
Conditions: read-out: PPB (converted)
measuredMetric: fraction unbound
Respond using a number only.

Req: Sample Cc1c(-c2cccc(S(=O)(=O)N(C)C)c2)c2cc(C(=O)O)ccc2n1C/C(F)=C/CN.Cl — what was its fraction unbound?
Resp: 0.14

----------
Target: UniProt Q16853
Sequence (Q16853 whole entry): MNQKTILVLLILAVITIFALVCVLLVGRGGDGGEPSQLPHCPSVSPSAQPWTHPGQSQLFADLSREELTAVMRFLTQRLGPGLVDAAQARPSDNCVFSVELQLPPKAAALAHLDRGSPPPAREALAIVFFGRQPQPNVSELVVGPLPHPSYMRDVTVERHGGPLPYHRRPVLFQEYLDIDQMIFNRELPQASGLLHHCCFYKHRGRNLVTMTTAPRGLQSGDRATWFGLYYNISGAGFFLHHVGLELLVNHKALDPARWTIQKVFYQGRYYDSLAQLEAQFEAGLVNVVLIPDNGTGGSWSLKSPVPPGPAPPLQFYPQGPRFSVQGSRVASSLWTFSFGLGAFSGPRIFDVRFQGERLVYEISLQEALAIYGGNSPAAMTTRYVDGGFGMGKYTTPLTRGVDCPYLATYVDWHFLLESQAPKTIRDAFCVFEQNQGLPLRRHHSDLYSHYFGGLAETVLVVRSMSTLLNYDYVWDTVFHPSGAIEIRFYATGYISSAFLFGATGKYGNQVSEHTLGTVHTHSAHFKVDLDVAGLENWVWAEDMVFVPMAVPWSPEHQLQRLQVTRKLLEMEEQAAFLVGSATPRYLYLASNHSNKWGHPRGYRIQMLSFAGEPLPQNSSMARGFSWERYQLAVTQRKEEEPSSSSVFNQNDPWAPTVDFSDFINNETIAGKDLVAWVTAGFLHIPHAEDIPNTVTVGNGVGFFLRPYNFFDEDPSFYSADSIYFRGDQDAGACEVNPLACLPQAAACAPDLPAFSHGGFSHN
Assay: Substrate activity at recombinant human SSAO assessed as compound oxidation by measuring oxidative turnover at 30 uM measured for 40 mins by horseradish peroxidase-coupled amplex red reagent-based fluorometric assay relative to DMSO
Assay type: ADME
measuredMetric: fold change (FC)
Respond using a number only.

>  <smi>
Cc1c(-c2cccc(S(=O)(=O)N(C)C)c2)c2ccccc2n1C/C(F)=C/CN.Cl

>  <fold change (FC)>
1.4

$$$$

Req: Sample Cc1c(-c2cccc(S(=O)(=O)N(C)C)c2)c2cc(S(C)(=O)=O)ccc2n1C/C(F)=C/CN.Cl — what was its fold change (FC)?
Resp: 1.3

Req: Sample Cc1c(-c2cccc(S(=O)(=O)N(C)C)c2)c2cc(NS(C)(=O)=O)ccc2n1C/C(F)=C/CN.Cl — what was its fold change (FC)?
Resp: 1

Req: Sample Cc1c(-c2cccc(S(=O)(=O)N(C)C)c2)c2cccc(C(=O)N(C)C)c2n1C/C(F)=C/CN.Cl — what was its fold change (FC)?
Resp: 1.1

Req: Sample Cc1c(-c2cccc(S(=O)(=O)N(C)C)c2)c2ccc(C(=O)O)cc2n1C/C(F)=C/CN.Cl — what was its fold change (FC)?
Resp: 1.1

----------
Measured fold change (FC) by item
Assay: Substrate activity at AOC4 in dog serum assessed as compound oxidation by measuring oxidative turnover at 30 uM measured for 40 mins by horseradish peroxidase-coupled amplex red reagent-based fluorometric assay relative to DMSO
Assay type: ADME, cell-free, Canis lupus familiaris
Respond using a number only.

>  <smi>
Cc1c(-c2cccc(S(=O)(=O)N(C)C)c2)c2ccc(C(=O)N(C)C)cc2n1C/C(F)=C/CN.Cl

>  <measuredMetric>
fold change (FC)

>  <testValue>
1.1

$$$$
>  <smi>
Cc1c(-c2cccc(S(=O)(=O)N(C)C)c2)c2ccc(C(=O)O)cc2n1C/C(F)=C/CN.Cl

>  <measuredMetric>
fold change (FC)

>  <testValue>
1

$$$$
>  <smi>
Cc1c(-c2cccc(S(=O)(=O)N(C)C)c2)c2cc(S(C)(=O)=O)ccc2n1C/C(F)=C/CN.Cl

>  <measuredMetric>
fold change (FC)

>  <testValue>
1.3

$$$$

Req: Sample CCOC(=O)c1ccc2c(c1)c(-c1cccc(S(=O)(=O)N(C)C)c1)c(C)n2C/C(F)=C/CN.Cl — what was its fold change (FC)?
Resp: 1

Req: Sample Cc1c(-c2cccc(S(=O)(=O)N(C)C)c2)c2cc(NS(C)(=O)=O)ccc2n1C/C(F)=C/CN.Cl — what was its fold change (FC)?
Resp: 1.5

Req: Sample Cc1c(-c2cccc(S(=O)(=O)N(C)C)c2)c2cc(-c3nnn[nH]3)ccc2n1C/C(F)=C/CN.Cl — what was its fold change (FC)?
Resp: 1

Req: Sample COc1ccc2c(c1)c(-c1cccc(S(=O)(=O)N(C)C)c1)c(C)n2C/C(F)=C/CN.Cl — what was its fold change (FC)?
Resp: 1.6

Req: Sample Cc1c(-c2cccc(S(=O)(=O)N(C)C)c2)c2cc(C(=O)O)ccc2n1C/C=C/CN.Cl — what was its fold change (FC)?
Resp: 1.3

Req: Sample Cc1c(-c2cccc(S(=O)(=O)N(C)C)c2)c2cc(O)ccc2n1C/C(F)=C/CN.Cl — what was its fold change (FC)?
Resp: 1.1

----------
Assay: Stability in dog microsomes assessed as half life
Type: ADME, Canis lupus familiaris, Microsome
measuredMetric: half-life

Req: Sample Cc1c(-c2cccc(S(=O)(=O)N(C)C)c2)c2cc(C(=O)O)ccc2n1C/C(F)=C/CN.Cl — what was its half-life?
Resp: > 1.5 h

----------
Experiment: Stability in rat microsomes assessed as half life
Type: ADME, Microsome
measuredMetric: half-life

Req: Sample Cc1c(-c2cccc(S(=O)(=O)N(C)C)c2)c2cc(C(=O)O)ccc2n1C/C(F)=C/CN.Cl — what was its half-life?
Resp: > 1.5 h

----------
Target: Protein-lysine 6-oxidase (Bos taurus, UniProt P33072)
Sequence (P33072 whole entry): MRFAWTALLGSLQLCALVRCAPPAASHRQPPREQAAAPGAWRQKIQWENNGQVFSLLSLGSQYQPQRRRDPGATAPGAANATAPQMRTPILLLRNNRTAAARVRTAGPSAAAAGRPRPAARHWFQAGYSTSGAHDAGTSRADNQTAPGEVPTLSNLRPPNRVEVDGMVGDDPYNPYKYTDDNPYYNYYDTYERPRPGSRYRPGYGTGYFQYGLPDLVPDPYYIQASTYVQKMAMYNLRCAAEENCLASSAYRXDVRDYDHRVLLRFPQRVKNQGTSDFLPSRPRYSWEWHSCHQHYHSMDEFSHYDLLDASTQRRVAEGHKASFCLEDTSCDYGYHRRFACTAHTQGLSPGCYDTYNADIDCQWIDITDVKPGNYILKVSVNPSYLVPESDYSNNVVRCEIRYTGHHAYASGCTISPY
Test: Inhibition of LOX in bovine aorta using putrescine as substrate preincubated with enzyme for 30 mins followed by substrate addition and measured every 2.5 mins for 30 mins by Amplex-Red oxidation assay
Type: tissue-based
Settings: read-out: pIC50 (converted)
Measured IC50 by item
Numeric answer only, unit nM assumed.

>  <smi>
C[C@H](NS(=O)(=O)c1ccc(OC/C(F)=C\CN)cc1)c1ccccc1

>  <testTarget>
Protein-lysine 6-oxidase (Bos taurus, UniProt P33072)

>  <unit>
nM

>  <testValue>
2000

$$$$
>  <smi>
CC(C)(C)c1ccc(OCc2cn(C/C(F)=C/CN)nn2)cc1

>  <testTarget>
Protein-lysine 6-oxidase (Bos taurus, UniProt P33072)

>  <unit>
nM

>  <testValue>
501

$$$$
>  <smi>
Cc1c(-c2cccc(S(=O)(=O)N(C)C)c2)c2cc(C(=O)N(C)C)ccc2n1C/C(F)=C/CN.Cl

>  <testTarget>
Protein-lysine 6-oxidase (Bos taurus, UniProt P33072)

>  <unit>
nM

>  <testValue>
1580

$$$$

Req: Sample CS(=O)(=O)c1cccc(OCc2cn(C/C(F)=C/CN)nn2)c1 — what was its IC50?
Resp: 1000

Req: Sample Cc1c(-c2cccc(S(=O)(=O)N(C)C)c2)c2ccc(C(=O)O)cc2n1C/C(F)=C/CN.Cl — what was its IC50?
Resp: 15800

Req: Sample COc1ccc2c(c1)c(-c1cccc(S(=O)(=O)N(C)C)c1)c(C)n2C/C(F)=C/CN.Cl — what was its IC50?
Resp: 1580

Req: Sample CN(C)S(=O)(=O)c1ccc(OCc2cn(C/C(F)=C/CN)nn2)c(Cl)c1.Cl — what was its IC50?
Resp: 794

Req: Sample Cc1c(-c2cccc(S(=O)(=O)N(C)C)c2)c2cccc(C(=O)N(C)C)c2n1C/C(F)=C/CN.Cl — what was its IC50?
Resp: 20000

Req: Sample CN(C)S(=O)(=O)c1ccc(-c2cn(C/C(F)=C/CN)nn2)cc1.Cl — what was its IC50?
Resp: 794

Req: Sample CN(C)S(=O)(=O)c1cccc(-c2ccn(C/C(F)=C/CN)c2)c1.Cl — what was its IC50?
Resp: 2000
